// reported IC50hu for each item listed
# target.entity: human MMP-12 (human, UniProt P39900 106-470, limits assumed)
# Sequence (P39900 106-470 limits assumed): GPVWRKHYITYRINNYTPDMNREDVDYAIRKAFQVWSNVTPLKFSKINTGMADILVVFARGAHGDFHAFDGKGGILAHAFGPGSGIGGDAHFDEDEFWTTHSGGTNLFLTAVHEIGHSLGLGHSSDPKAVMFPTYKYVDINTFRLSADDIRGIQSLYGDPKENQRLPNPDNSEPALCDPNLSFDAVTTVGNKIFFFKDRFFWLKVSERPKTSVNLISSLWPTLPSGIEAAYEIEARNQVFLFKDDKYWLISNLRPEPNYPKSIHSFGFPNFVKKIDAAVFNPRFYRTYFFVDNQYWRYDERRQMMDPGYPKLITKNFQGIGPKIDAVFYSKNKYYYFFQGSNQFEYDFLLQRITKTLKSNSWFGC
# experiment.description: cell-based or functional assay
Respond with the bare value in nM.

{"columns": ["binder", "assay.result"],
 "data": [
  ["539B-M0065-G03 (Fab, V domains shown) VH: EVQLLESGGGLVQPGGSLRLSCAASGFTFSWYGMGWVRQAPGKGLEWVSVIVSSGGFTQYADSVKGRFTISRDNSKNTLYLQMNSLRAEDTAVYYCAKDIRGAYSSGLFDYWGRGTLVTVSS VL: DIQMTQSPSSLSASVGDRVTITCRANQSIYTYLNWYQQKPGKAPELLIYAASSLQSGVPSRFSGSGSGTDFTLTISSLQPEDFATYYCQQAGIFGQGTKLEIK", 3],
  ["539B-M0063-G01 (Fab, V domains shown) VH: EVQLLESGGGLVQPGGSLRLSCAASGFTFSWYWMVWVRQAPGKGLEWVSSIGPSGGDTYYADSVKGRFTISRDNSKNTLYLQMNSLRAEDTAVYYCAKDIRGAYSSGLFDYWGRGTLVTVSS VL: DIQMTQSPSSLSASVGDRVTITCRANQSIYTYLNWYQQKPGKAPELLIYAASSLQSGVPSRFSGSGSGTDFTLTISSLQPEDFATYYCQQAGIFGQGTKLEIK", 0.8]
]}

Turning now to a further binder:
Prompt line: Please report the recorded IC50hu for 539B-M0069-D10 (Fab, V domains shown) VH: EVQLLESGGGLVQPGGSLRLSCAASGFTFSLYHMHWVRQAPGKGLEWVSGIGPSGGWTIYADSVKGRFTISRDNSKNTLYLQMNSLRAEDTAVYYCAKDIRGAYSSGLFDYWGRGTLVTVSS VL: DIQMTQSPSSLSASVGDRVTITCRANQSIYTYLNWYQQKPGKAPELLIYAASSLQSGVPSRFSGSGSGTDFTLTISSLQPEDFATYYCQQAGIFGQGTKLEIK .
Response line: 2.3
